- testedSystem: basic fibroblast growth factor (bFGF) (UniProt P09038 P09038:135-288)
- Sequence (P09038 135-288, one chain of several): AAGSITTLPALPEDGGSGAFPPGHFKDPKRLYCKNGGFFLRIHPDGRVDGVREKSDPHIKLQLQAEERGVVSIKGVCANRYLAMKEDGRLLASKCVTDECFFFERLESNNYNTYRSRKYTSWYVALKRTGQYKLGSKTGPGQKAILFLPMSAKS
- assayNotes: filter; PBS, 0.01% HSA, 1 mM DTT, 37 C; +/-0.3
- conditionParameters: tags: Bachem California, 18 kDa, 154 aa; 125I-labeled for receptor assays
- Protocol: This affinity screening allowed identification of those ligands with highest affinity for bFGF. Binding of a group of these ligands was analyzed over a range of bFGF concentrations (FIG. 5) and their dissociation constants.(Kd's) were determined as described (Jellinek et al. (1993) Proc. Natl. Acad. Sci. USA 90:11227–11231) (Table IX). RNA concentrations were determined from their absorbance reading at […] (and were typically <100 pM). […]
pKd: −log10 of the molar value.
valueType: pKd

INSERT INTO measurements (binder, valuetype, obsvalue) VALUES
  ('2''-NH2 52B (ssRNA, 2''-NH2 pyrimidines) RNA: GGGAGGACGAUGCGGGGAGGGGCAGGUUCGAUGCGGGAGCGACUGACCACGAGAAAUGUGCGGGUCAGACGACUCGCCCGA', 'pKd', 8.64),
  ('2''-NH2 53A (ssRNA, 2''-NH2 pyrimidines) RNA: GGGAGACAAGAAUAACGCUCAAUGAGGAUCGGAUGGGGAGCAGGCGGAGGAAUUCGACAGGAGGCUCACAACAGGC', 'pKd', 8.82),
  ('2''-NH2 58A (ssRNA, 2''-NH2 pyrimidines) RNA: GGGAGACAAGAAUAACGCUCAAUUAACGGCGUGGUCCGAGGGUGGCGAGUACUUCGACAGGAGGCUCACAACAGGC', 'pKd', 8.85);
